System: PRKD2
Settings: concentration: 1 μM,replicates: in singlicate; n = 1;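 also: KINOMEscan kinase panel screen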
# cutoff 4% applies to %Inh; >= gives MET, < gives NOT MET

{"compound": "C[C@@H]1CNc2c(sc3ccc4nc(-c5ccc(O)cc5)ccc4c23)C(=O)N1", "measured on": "PRKD2", "class": "MET"}
{"compound": "NC(=O)Nc1sc(-c2ccc(F)cc2)cc1C(N)=O [GW789449]", "measured on": "PRKD2", "class": "NOT MET"}
{"compound": "COc1cc2ncn(-c3cc(OCC4CCCCC4)c(C(N)=O)s3)c2cc1OC [GSK204559]", "measured on": "PRKD2", "class": "NOT MET"}
{"compound": "C[C@@H](Oc1cc(-n2cnc3cc(-c4cnn(C)c4)ccc32)sc1C(N)=O)c1ccccc1Cl [GSK580432]", "measured on": "PRKD2", "class": "NOT MET"}
{"compound": "Cl.c1ccc(Oc2ccc(Nc3ccnc4cc(-c5ccc(CN6CCNCC6)o5)ccc34)cc2)nc1 [GW567142]", "measured on": "PRKD2", "class": "NOT MET"}
{"compound": "CCNCC(Cc1ccccc1)NC(=O)c1cc(Br)c(-c2ccnc3[nH]ccc23)s1.Cl.Cl (centres unmarked) [GSK1383280]", "measured on": "PRKD2", "class": "MET"}
{"compound": "Cc1ccc(CC(=O)N2CCc3cc(-c4cn(C)c5ncnc(N)c45)ccc32)cc1 [GSK2634758]", "measured on": "PRKD2", "class": "MET"}

---

Quick reference for %Inh among some compounds
Tested on: EPHB6
Settings: concentration: 1 μM,replicates: in singlicate; n = 1
property label: %Inh (%)

{"compound": "CC(=O)c1c(-c2ccncc2)[nH]c(-c2ccncc2)c1C", "recorded number": 0}
{"compound": "CN(c1cccc(CNc2nc(Nc3ccc4c(c3)CC(=O)N4)ncc2C(F)(F)F)c1)S(C)(=O)=O", "recorded number": 56}
{"compound": "C[C@@H](Oc1cc(-n2cnc3cc(-c4ccncc4)ccc32)sc1C(N)=O)c1ccccc1Cl", "recorded number": 0}
{"compound": "CCN1CCN(CCCC(=O)Nc2n[nH]c3nc(-c4ccc(O)cc4)c(Br)cc23)CC1", "recorded number": 0}
{"compound": "COc1ccc(Nc2nccc(N3CCC(NC(=O)c4cccc(C#N)c4)C3)n2)cc1 (stereo not shown)", "recorded number": 0}
{"compound": "CC(C(=O)NC1CCN(c2ccnc(Nc3ccc(F)cc3)n2)C1)c1ccc(Cl)cc1 (stereo not shown)", "recorded number": 0}
{"compound": "Cc1nnc(-c2ccc3occ(-c4ccc(S(C)=O)cc4)c3n2)o1 (stereo not shown)", "recorded number": 0}

---

System: FGFR3
Settings: concentration: 1 μM,replicates: in singlicate; n = 1
Quick reference for %Inh among some compounds
property label: %Inh (%)

{"compound": "C[C@@H]1CNc2c(sc3ccc4nc(-c5ccncc5)ccc4c23)C(=O)N1", "measurement unit": "%", "recorded number": 0}
{"compound": "COC(=O)c1cccc(NC(=O)NC2CCN(c3ccnc(NCc4ccc(F)cc4)n3)CC2)c1", "measurement unit": "%", "recorded number": 11}
{"compound": "O=C1NCCc2[nH]c(-c3ccncc3)cc21", "measurement unit": "%", "recorded number": 10}
{"compound": "C[C@@H]1CNc2c(sc3ccc4nc(-c5ccc(O)cc5)ccc4c23)C(=O)N1", "measurement unit": "%", "recorded number": 12}
{"compound": "COc1cc2ncn(-c3cc(OCC4CCCCC4)c(C(N)=O)s3)c2cc1OC", "measurement unit": "%", "recorded number": 12}
{"compound": "Cn1ccc2ncnc(Oc3ccc(NC(=O)Nc4cccc(C(F)(F)F)c4)c(F)c3)c21", "measurement unit": "%", "recorded number": 5}
{"compound": "Cn1cc(-c2cccc3c(N)c(C(N)=O)nnc23)cn1", "measurement unit": "%", "recorded number": 12}
{"compound": "C[C@@H]1CCN(C(=O)N2CCCC2)C[C@@H]1N(C)c1ncnc2[nH]ccc12", "measurement unit": "%", "recorded number": 20}
{"compound": "COc1cccc(C2=C(Nc3cccc(Cl)c3)C(=O)NC2=O)c1", "measurement unit": "%", "recorded number": 29}
{"compound": "Cn1ccc2ncnc(Oc3ccc(NC(=O)Nc4cncc(C(F)(F)F)c4)c(Cl)c3)c21", "measurement unit": "%", "recorded number": 0}
{"compound": "CN1CCN(CCCNc2nccc(-c3c(-c4ccc(F)cc4)nn4cc(C(N)=O)ccc34)n2)CC1", "measurement unit": "%", "recorded number": 8}
{"compound": "O=C(Nc1cccc(C(F)(F)F)c1)c1cccc(Oc2ccc3nccn3n2)c1", "measurement unit": "%", "recorded number": 5}
{"compound": "Cn1ccc2ncnc(Oc3ccc(NC(=O)Nc4ccnc(C(F)(F)F)c4)c(Cl)c3)c21", "measurement unit": "%", "recorded number": 0}
{"compound": "COc1cc(Nc2nccc(N3CCC(NC(=O)c4cccc(C#N)c4)C3)n2)cc(OC)c1OC (centres unmarked)", "measurement unit": "%", "recorded number": 5}

---

Test system: BIKE
Construct: gene BMP2K
Details: concentration: 1 μM,replicates: in singlicate; n = 1
Classify: met when %Inh is strictly less than 60%; not met when %Inh is not.

{"structure as smiles": "CN(c1ccccc1CNc1nc(Nc2ccc3c(c2)CC(=O)N3)ncc1C(F)(F)F)S(C)(=O)=O", "class": "met"}
{"structure as smiles": "NC(=O)c1ccc(-c2cc3ncnc(SCC(=O)O)c3s2)cc1", "class": "met"}
{"structure as smiles": "Cc1ccc(Nc2ccnc(Nc3ccc4c(c3)CS(=O)(=O)C4)n2)cc1O.Cl", "class": "not met"}
{"structure as smiles": "O=C(Nc1cccc(C(F)(F)F)c1)c1cccc(Oc2ccc3nccn3n2)c1", "class": "met"}
{"structure as smiles": "C[C@@H](Oc1cc(-n2cnc3ccc(-c4ccncc4)cc32)sc1C(N)=O)c1ccccc1Cl", "class": "not met"}

---

Tested on: PRKX
Conditions: concentration: 1 μM,replicates: in singlicate; n = 1
Quick reference for %Inh among some molecules
property label: %Inh (%)

{"molecule": "Cn1ccc2ncnc(Oc3ccc(NC(=O)Nc4cncc(C(F)(F)F)c4)c(Cl)c3)c21", "measured on": "PRKX", "property label": "%Inh", "measurement unit": "%", "recorded number": 0}
{"molecule": "Cn1ccc2ncnc(Oc3ccc(NC(=O)Nc4cc(C(C)(C)C)on4)c(Cl)c3)c21", "measured on": "PRKX", "property label": "%Inh", "measurement unit": "%", "recorded number": 17}
{"molecule": "CSc1nccc(-c2c(-c3ccc(F)cc3)ncn2CCCN2CCOCC2)n1.Cl [SB-217146]", "measured on": "PRKX", "property label": "%Inh", "measurement unit": "%", "recorded number": 0}
{"molecule": "COC(=O)Nc1nc2cc(Oc3ccc(NC(=O)Nc4cc(C(F)(F)F)ccc4Cl)cc3)ccc2[nH]1.Cl [GW697465]", "measured on": "PRKX", "property label": "%Inh", "measurement unit": "%", "recorded number": 15}
{"molecule": "C[C@@H](Oc1cc(-n2cnc3cc(-c4ccncc4)ccc32)sc1C(N)=O)c1ccccc1Cl [GSK479719]", "measured on": "PRKX", "property label": "%Inh", "measurement unit": "%", "recorded number": 2}
{"molecule": "COc1ccc(Nc2nccc(N3CCC(NC(=O)c4cccc(C#N)c4)C3)n2)cc1 (centres unmarked) [GSK1379730]", "measured on": "PRKX", "property label": "%Inh", "measurement unit": "%", "recorded number": 0}
{"molecule": "N#Cc1cccc(C(=O)NC2CCN(c3ccnc(Nc4ccc(F)cc4)n3)C2)c1 (centres unmarked) [GSK1379708]", "measured on": "PRKX", "property label": "%Inh", "measurement unit": "%", "recorded number": 14}
{"molecule": "FC(F)(F)c1cc(Br)cc(Nc2nccc(-c3cnn4ncccc34)n2)c1 [GW810578]", "measured on": "PRKX", "property label": "%Inh", "measurement unit": "%", "recorded number": 0}

---

Test system: p38-delta
Details: concentration: 1 μM,replicates: in singlicate; n = 1
Quick reference for %Inh among some compounds

{"structure as smiles": "Cn1cc(-c2cccc3c(N)c(C(N)=O)nnc23)cn1", "%Inh (%)": 6}
{"structure as smiles": "NC(=O)Nc1sc(-c2ccc(F)cc2)cc1C(N)=O", "%Inh (%)": 0}
{"structure as smiles": "Cc1ccc(C(=O)Nc2ccc(Oc3ccc4nc(NC(=O)C5CC5)cn4c3)c(F)c2)c(=O)n1-c1ccccc1", "%Inh (%)": 0}
{"structure as smiles": "c1ccc(Oc2ccc(Nc3ccnc4ccc(-c5ccccn5)cc34)cc2)cc1", "%Inh (%)": 19}
{"structure as smiles": "C[C@@H](Oc1cc(-n2cnc3ccc(-c4ccncc4)cc32)sc1C(N)=O)c1ccccc1Cl", "%Inh (%)": 39}
{"structure as smiles": "Cl.Nc1n[nH]c2cc(-c3ccccn3)ccc12", "%Inh (%)": 22}
{"structure as smiles": "CCn1c(-c2nonc2N)nc2cncc(Br)c21", "%Inh (%)": 0}
{"structure as smiles": "Cn1ccc2ncnc(Oc3ccc(NC(=O)Nc4cccc(C(F)(F)F)c4)c(Cl)c3)c21", "%Inh (%)": 35}
{"structure as smiles": "C[C@@H]1CCN(C(=O)N2CCCC2)C[C@@H]1N(C)c1ncnc2[nH]ccc12", "%Inh (%)": 25}

Just for reference, paper PMC5540273 is where these values come from.
